- protocol: in vitro
- test_settings: human, hela cells, % viability
readout_type: viability at 28.5 h, 10 µM (%)
Numbers only, in %.

Worked cases, answers included:
compound	viability at 28.5 h, 10 µM, %
COc1ccc(S(=O)(=O)Nc2ccsc2C(=O)N2CCN(C)CC2)cc1OC	95.3
COCCCNC(=S)N/N=C/c1ccco1	104
CS(=O)(=O)NCC1CCCCN1Cc1ccc(-n2cccn2)cc1 (stereo not shown)	91.9
CN1C(=O)COc2ccccc2C/C=C/C[C@@H]2[C@H]1CCCN2S(=O)(=O)N1CCOCC1	90.6
O=c1n(CCCNCc2ccc(Cl)cc2Cl)nc2n1CCCC2	97.2

Record viability at 28.5 h, 10 µM per entry; entries follow.
1. Cc1nc(NC(=O)CCN2C(=O)COc3ccccc32)sc1-c1n[nH]c(=S)n1C
2. O=C1CC(C(=O)O)CN(c2cccs2)C1 (stereo not shown)
3. Cc1nnc([C@H]2CCN(Cc3ccc4c(c3)OCO4)C2)o1
4. CCOc1ccc(NC(=O)c2c(O)c3ccccc3n(CC)c2=O)cc1
5. O=C(Cn1cnc(NCc2cscn2)n1)N1CCCCCC1

Given back:
1: 98.5; 2: 92.8; 3: 111; 4: 107; 5: 98
